Parameter inhibition at 10 µM: see the listing below.
- target-or-system: norepinephrine transporter (h) (Homo sapiens, UniProt P23975)
- Construct: expressed in transfected cells; host or cells: CHO cells
- Sequence (P23975 whole entry): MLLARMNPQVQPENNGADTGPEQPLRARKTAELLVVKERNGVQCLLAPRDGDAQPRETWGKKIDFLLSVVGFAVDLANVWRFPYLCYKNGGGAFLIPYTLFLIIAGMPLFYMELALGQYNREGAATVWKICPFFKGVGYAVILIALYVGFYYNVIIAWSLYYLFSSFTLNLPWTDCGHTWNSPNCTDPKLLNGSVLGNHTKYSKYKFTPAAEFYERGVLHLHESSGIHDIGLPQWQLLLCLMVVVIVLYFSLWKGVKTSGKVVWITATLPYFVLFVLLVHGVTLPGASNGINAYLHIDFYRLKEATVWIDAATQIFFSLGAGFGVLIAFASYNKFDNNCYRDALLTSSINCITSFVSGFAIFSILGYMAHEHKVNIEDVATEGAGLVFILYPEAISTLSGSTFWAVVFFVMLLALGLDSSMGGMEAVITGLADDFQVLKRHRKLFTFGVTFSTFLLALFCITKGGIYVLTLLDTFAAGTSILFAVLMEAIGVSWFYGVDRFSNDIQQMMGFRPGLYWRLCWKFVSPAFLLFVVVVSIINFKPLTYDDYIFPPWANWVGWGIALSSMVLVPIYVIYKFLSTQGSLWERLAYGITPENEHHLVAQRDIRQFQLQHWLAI
- method: Binding norepinephrine transporter (h) (aa)
- details: read-out: % Inhibition of Control Specific Binding @ 10 μM
Express the result in % but write the number alone.

CC1(C)C(=O)N(c2ccc(C#N)c(C(F)(F)F)c2)C(=S)N1c1ccc(C(N)=O)c(F)c1 ... -13
CNC(=O)c1ccc(N2C(=O)N(c3ccc(C#N)c(C(F)(F)F)c3)C(=O)C2(C)C)cc1F ... 20
CC1(C)C(=O)N(c2ccc(C#N)c(C(F)(F)F)c2)C(=S)N1c1ccc(C(=O)O)c(F)c1 ... 56

Below: the item to evaluate.
IN: Need inhibition at 10 µM, item CC1(C)C(=O)N(c2ccc(C#N)c(C(F)(F)F)c2)C(=O)N1c1ccc(C(N)=O)c(F)c1
OUT: 9

----------
Parameter inhibition at 10 µM: see the listing below.
- target-or-system: Adenosine A1 (h) (Homo sapiens, UniProt P30542)
- Construct: expressed in transfected cells; host or cells: CHO cells
- Sequence (P30542 whole entry): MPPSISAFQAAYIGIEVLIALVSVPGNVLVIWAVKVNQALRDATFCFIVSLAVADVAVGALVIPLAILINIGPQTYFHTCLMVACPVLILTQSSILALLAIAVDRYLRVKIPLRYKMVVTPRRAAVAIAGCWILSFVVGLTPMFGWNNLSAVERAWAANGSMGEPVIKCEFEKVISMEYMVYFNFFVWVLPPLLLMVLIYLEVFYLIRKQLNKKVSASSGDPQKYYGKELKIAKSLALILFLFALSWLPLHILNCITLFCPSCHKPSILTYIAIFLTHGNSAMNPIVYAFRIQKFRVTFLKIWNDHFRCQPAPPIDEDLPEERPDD
- method: Binding A1 (h) (aa)
- details: read-out: % Inhibition of Control Specific Binding @ 10 μM
Express the result in % but write the number alone.

Below, 3 molecules whose answers are already recorded.
CC1(C)C(=O)N(c2ccc(C#N)c(C(F)(F)F)c2)C(=S)N1c1ccc(C(=O)O)c(F)c1 ... 10
CC1(C)C(=O)N(c2ccc(C#N)c(C(F)(F)F)c2)C(=S)N1c1ccc(C(N)=O)c(F)c1 ... 9
CC1(C)C(=O)N(c2ccc(C#N)c(C(F)(F)F)c2)C(=O)N1c1ccc(C(N)=O)c(F)c1 ... 2

IN: Need inhibition at 10 µM, item CNC(=O)c1ccc(N2C(=O)N(c3ccc(C#N)c(C(F)(F)F)c3)C(=O)C2(C)C)cc1F
OUT: 6

----------
Parameter Peak Height (mV): see the listing below.
- method: [14C]RD162′ radio-HPLC metabolite profile in Pooled Rat Plasma
- Assay type: in vivo, Sprague Dawley rats
- details: [14C]RD162′ 100 mg/kg/day oral, day 7, 4 h
Express the result in mV but write the number alone.

Below, 3 compounds whose answers are already recorded.
CNC(=O)c1ccc(N2C(=O)N(c3ccc(C#N)c(C(F)(F)F)c3)C(=O)C2(C)C)cc1F [(MIV)] ... 63
CC1(C)C(=O)N(c2ccc(C#N)c(C(F)(F)F)c2)C(=O)N1c1ccc(C(=O)O)c(F)c1 [(MV)] ... 49
CC1(C)C(=O)N(c2ccc(C#N)c(C(F)(F)F)c2)C(=S)N1c1ccc(C(N)=O)c(F)c1 [(MII)] ... 43

IN: Need Peak Height (mV), item CC1(C)C(=O)N(c2ccc(C#N)c(C(F)(F)F)c2)C(=S)N1c1ccc(C(=O)O)c(F)c1 [(MI)]
OUT: 86

IN: Need Peak Height (mV), item CC1(C)C(=O)N(c2ccc(C#N)c(C(F)(F)F)c2)C(=O)N1c1ccc(C(N)=O)c(F)c1 [(MIII)]
OUT: 77

----------
Parameter inhibition at 10 µM: see the listing below.
- target-or-system: Endothelin ETB (h) (Homo sapiens, UniProt P24530)
- Construct: expressed in transfected cells; host or cells: CHO cells
- Sequence (P24530 27-442): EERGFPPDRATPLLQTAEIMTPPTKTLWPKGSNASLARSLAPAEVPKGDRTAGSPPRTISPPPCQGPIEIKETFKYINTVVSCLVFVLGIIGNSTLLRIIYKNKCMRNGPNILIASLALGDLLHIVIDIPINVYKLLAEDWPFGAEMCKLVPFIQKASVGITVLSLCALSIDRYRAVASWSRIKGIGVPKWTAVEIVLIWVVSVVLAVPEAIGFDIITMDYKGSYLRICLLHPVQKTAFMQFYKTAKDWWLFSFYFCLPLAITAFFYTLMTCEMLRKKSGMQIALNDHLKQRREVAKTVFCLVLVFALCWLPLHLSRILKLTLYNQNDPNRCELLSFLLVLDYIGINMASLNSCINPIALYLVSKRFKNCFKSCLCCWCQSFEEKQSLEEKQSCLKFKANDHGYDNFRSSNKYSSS
- method: Binding ETB (h) (ag)
- details: read-out: % Inhibition of Control Specific Binding @ 10 μM

Below, 3 molecules whose answers are already recorded.
CC1(C)C(=O)N(c2ccc(C#N)c(C(F)(F)F)c2)C(=O)N1c1ccc(C(N)=O)c(F)c1 ... 0%
CC1(C)C(=O)N(c2ccc(C#N)c(C(F)(F)F)c2)C(=S)N1c1ccc(C(=O)O)c(F)c1 ... -7%
CC1(C)C(=O)N(c2ccc(C#N)c(C(F)(F)F)c2)C(=S)N1c1ccc(C(N)=O)c(F)c1 ... -4%

IN: Need inhibition at 10 µM, item CNC(=O)c1ccc(N2C(=O)N(c3ccc(C#N)c(C(F)(F)F)c3)C(=O)C2(C)C)cc1F
OUT: -3%

----------
- method: [14C]RD162′ radio-HPLC metabolite profile in Pooled Rat Plasma
- Format: in vivo, Sprague Dawley rats
- details: [14C]RD162′ 100 mg/kg/day oral, day 7, 4 h
measure-name: % Recovered Radioactivity (%)
Express the result in % but write the number alone.

CC1(C)C(=O)N(c2ccc(C#N)c(C(F)(F)F)c2)C(=O)N1c1ccc(C(=O)O)c(F)c1 ... 9.05

IN: Need % Recovered Radioactivity (%), item CC1(C)C(=O)N(c2ccc(C#N)c(C(F)(F)F)c2)C(=S)N1c1ccc(C(N)=O)c(F)c1
OUT: 8.45

IN: Need % Recovered Radioactivity (%), item CNC(=O)c1ccc(N2C(=O)N(c3ccc(C#N)c(C(F)(F)F)c3)C(=O)C2(C)C)cc1F
OUT: 13.27

IN: Need % Recovered Radioactivity (%), item CC1(C)C(=O)N(c2ccc(C#N)c(C(F)(F)F)c2)C(=S)N1c1ccc(C(=O)O)c(F)c1
OUT: 17.31

IN: Need % Recovered Radioactivity (%), item CC1(C)C(=O)N(c2ccc(C#N)c(C(F)(F)F)c2)C(=O)N1c1ccc(C(N)=O)c(F)c1
OUT: 12.50

----------
- target-or-system: Somatostatin sst5 (h) (Homo sapiens, UniProt P35346)
- Construct: expressed in transfected cells; host or cells: CHO cells
- Sequence (P35346 whole entry): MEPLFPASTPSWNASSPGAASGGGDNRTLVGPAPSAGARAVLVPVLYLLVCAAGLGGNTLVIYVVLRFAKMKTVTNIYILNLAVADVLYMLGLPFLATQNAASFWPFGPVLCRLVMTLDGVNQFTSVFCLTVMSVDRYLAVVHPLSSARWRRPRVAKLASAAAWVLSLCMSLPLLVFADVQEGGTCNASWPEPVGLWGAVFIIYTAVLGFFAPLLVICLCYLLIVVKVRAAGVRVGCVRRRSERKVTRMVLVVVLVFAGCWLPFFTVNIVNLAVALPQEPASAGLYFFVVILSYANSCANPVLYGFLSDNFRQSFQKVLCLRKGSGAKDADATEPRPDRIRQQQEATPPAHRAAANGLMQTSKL
- method: Binding sst5 (h) (ag)
- details: read-out: % Inhibition of Control Specific Binding @ 10 μM
Parameter inhibition at 10 µM: see the listing below.
Express the result in % but write the number alone.

Below, 3 compounds whose answers are already recorded.
CC1(C)C(=O)N(c2ccc(C#N)c(C(F)(F)F)c2)C(=S)N1c1ccc(C(N)=O)c(F)c1 [(MII)] ... 16
CC1(C)C(=O)N(c2ccc(C#N)c(C(F)(F)F)c2)C(=S)N1c1ccc(C(=O)O)c(F)c1 [(MI)] ... -25
CNC(=O)c1ccc(N2C(=O)N(c3ccc(C#N)c(C(F)(F)F)c3)C(=O)C2(C)C)cc1F [(MIV)] ... -7

Below: the item to evaluate.
IN: Need inhibition at 10 µM, item CC1(C)C(=O)N(c2ccc(C#N)c(C(F)(F)F)c2)C(=O)N1c1ccc(C(N)=O)c(F)c1 [(MIII)]
OUT: 2

----------
- target-or-system: Bradykinin B2 (h) (Homo sapiens, UniProt P30411)
- Construct: expressed in transfected cells; host or cells: CHO cells
- Sequence (P30411 whole entry): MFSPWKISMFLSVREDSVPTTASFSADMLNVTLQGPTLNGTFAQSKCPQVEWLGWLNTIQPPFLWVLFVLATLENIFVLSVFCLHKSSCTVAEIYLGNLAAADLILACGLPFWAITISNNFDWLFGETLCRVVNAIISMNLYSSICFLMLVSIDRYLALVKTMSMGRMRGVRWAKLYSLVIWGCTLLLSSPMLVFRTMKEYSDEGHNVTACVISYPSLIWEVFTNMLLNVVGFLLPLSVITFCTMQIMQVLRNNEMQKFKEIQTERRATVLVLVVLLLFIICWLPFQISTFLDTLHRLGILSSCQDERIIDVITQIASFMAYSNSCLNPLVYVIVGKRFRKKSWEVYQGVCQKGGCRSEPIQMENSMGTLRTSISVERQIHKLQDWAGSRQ
- method: Binding B2 (h) (ag)
- details: read-out: % Inhibition of Control Specific Binding @ 10 μM
- Method: Radioligand binding assay methods utilized to measure the activity of compounds of the invention will be familiar to those skilled in the art. […] Analysis and Expression of Results: Compounds of the invention were tested in the biochemical assays and percent inhibition of specific binding was determined. The specific ligand binding to the receptors is defined as the difference between the total binding and the nonspecific binding determined in the presence of an excess of unlabelled ligand. […]
Parameter inhibition at 10 µM: see the listing below.
Express the result in % but write the number alone.

IN: Need inhibition at 10 µM, item CC1(C)C(=O)N(c2ccc(C#N)c(C(F)(F)F)c2)C(=O)N1c1ccc(C(N)=O)c(F)c1
OUT: -3

IN: Need inhibition at 10 µM, item CC1(C)C(=O)N(c2ccc(C#N)c(C(F)(F)F)c2)C(=S)N1c1ccc(C(N)=O)c(F)c1
OUT: -12

IN: Need inhibition at 10 µM, item CC1(C)C(=O)N(c2ccc(C#N)c(C(F)(F)F)c2)C(=S)N1c1ccc(C(=O)O)c(F)c1
OUT: 2

IN: Need inhibition at 10 µM, item CNC(=O)c1ccc(N2C(=O)N(c3ccc(C#N)c(C(F)(F)F)c3)C(=O)C2(C)C)cc1F
OUT: 0

----------
Parameter inhibition at 10 µM: see the listing below.
- target-or-system: PKCα (h) (Homo sapiens)
- Construct: host or cells: insect cells
- method: Enzyme assay PKCα (h)
- Assay type: biochemical
- details: read-out: % Inhibition of Control Values @ 10 μM
Express the result in % but write the number alone.

Below, 3 compounds whose answers are already recorded.
CNC(=O)c1ccc(N2C(=O)N(c3ccc(C#N)c(C(F)(F)F)c3)C(=O)C2(C)C)cc1F [(MIV)] ... 5
CC1(C)C(=O)N(c2ccc(C#N)c(C(F)(F)F)c2)C(=O)N1c1ccc(C(N)=O)c(F)c1 [(MIII)] ... 3
CC1(C)C(=O)N(c2ccc(C#N)c(C(F)(F)F)c2)C(=S)N1c1ccc(C(N)=O)c(F)c1 [(MII)] ... 6

IN: Need inhibition at 10 µM, item CC1(C)C(=O)N(c2ccc(C#N)c(C(F)(F)F)c2)C(=S)N1c1ccc(C(=O)O)c(F)c1 [(MI)]
OUT: 4
